B1: LINE1-mini (parent)
chain: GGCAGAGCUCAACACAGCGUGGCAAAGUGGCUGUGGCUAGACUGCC

- Variants of: B1
- run_description: self-cleavage, relative activity (ratio to wild type); higher = more cleavage; in vitro, sequencing; the parent is a self-cleaving ribozyme
experimental_endpoint: self-cleavage
One number for each entry.

- macromolecule_sequence: "GGCAAAGCUCAACACAGCGUGGCAAAGUGGCUGCGGCUAGACUGCC [G5A U34C]"
  experimental_value: 0.08
- macromolecule_sequence: "GGCGGAGCUCAACACAGCGUGGCAAAGUGGCUGUGGCUAGACGGCC [A4G U43G]"
  experimental_value: 1.35
- macromolecule_sequence: "GGCAGACCUGAACACAGCGUGGCAAAGUGGCUGUGGCUAGACUGCC [G7C C10G]"
  experimental_value: 0.03
- macromolecule_sequence: "CGCAGAGCUCUACACAGCGUGGCAAAGUGGCUGUGGCUAGACUGCC [G1C A11U]"
  experimental_value: 0.03

Dear colleague, could you please provide self-cleavage for the variants listed below?
1. GGCAGAGCACAACACAGCGUGGCAGAGUGGCUGUGGCUAGACUGCC [U9A A25G]
2. GGCAGAGCUCAACACUGCGUGGCGAAGUGGCUGUGGCUAGACUGCC [A16U A24G]
3. GGCAUAGCUCAACACAGCGUGGCAAAGUGGUUGUGGCUAGACUGCC [G5U C31U]
4. GGCAGAGCUAAACACAGCGUGGCAAAGUGGCUGUGGCUAGACUGAC [C10A C45A]
5. GGCAGAGAUCAACACAGCGUGGCAAAGUGUCUGUGGCUAGACUGCC [C8A G30U]

Outgoing:
0.17
0.1
0.06
0.04
0.59
